Test system: BT-549 breast
protocol-summary: NCI-60 one-dose screen, 48 h (100 = growth as untreated, 0 = no growth, -100 = all killed)
conditions-used: 10 µM unless noted
This is part of a sample that, as a whole, favours compounds with a hit. Of some 83,000 tested, about 20% had one in any assay.
Class Met: growth at least 70%. Class Not met: growth below 70%.

| compound | study-target | assigned-category |
| --- | --- | --- |
| CCCCCCNC(=O)Oc1ccc(/C(=C(/C)c2ccccc2)c2ccc(OCCN3CCCCCC3)cc2)cc1 | BT-549 breast | Not met |
| O=C1/C(=C/C2=Cc3ccccc3OC2)SC(=S)N1c1ccc(F)cc1 | BT-549 breast | Met |
| COc1ccc(NC2=CC(=O)C(C)=C(C)C2=O)cc1 | BT-549 breast | Met |
| COc1ccc(COc2ccc(/C=C3/C(=O)Nc4cc(Cl)ccc43)cc2)cc1 | BT-549 breast | Met |
| Cc1ccc2ccc3ccc(C)nc3c2n1.Cc1ccc2ccc3ccc(C)nc3c2n1.Oc1c(Cl)cc(Cl)c2ccc(CN3CCCCC3)nc12.[Ru] | BT-549 breast | Not met |
| Clc1ccc2c(OCCCN3CCOCC3)c3oc4ccccc4c3nc2c1 | BT-549 breast | Met |
| COc1ccc(NC2=C(Cl)C(=O)C(C)=C(C)C2=O)cc1OC | BT-549 breast | Met |
| C#C[C@]1(O)CC[C@H]2[C@@H]3CC=C4c5sc(-c6ccc(F)cn6)nc5CC[C@]4(C)[C@H]3CC[C@@]21C | BT-549 breast | Not met |
| COc1ccc(Cc2nn(CC(=O)N/N=C/c3ccc(Cl)cc3)c(=O)c3c(C)noc23)cc1 | BT-549 breast | Met |
| C[C@@H](Nc1c(C#N)cnc2ccc(-c3cnc(N)nc3)cc12)c1ccccc1 | BT-549 breast | Not met |
| CC1=C(C)C(=O)C(Nc2ccccc2)=C(Cl)C1=O | BT-549 breast | Met |
| C=CCn1c(SCC(=O)c2ccccc2)nnc1-c1c[nH]c2ccccc12 | BT-549 breast | Met |
| CN(C)CCCNc1c2ccc(Cl)cc2nc2c1oc1ccccc12 | BT-549 breast | Not met |
| NC(=O)c1c(NC(=O)c2ccc(C3CCCCC3)cc2)sc2c1CCC(=O)C2 | BT-549 breast | Not met |
| O=C(CCN1C(=O)/C(=C/c2ccccc2)SC1=S)N1CCOCC1 | BT-549 breast | Met |
| CS(=O)(=O)c1ccc(-c2nc3ccccn3c2/C=N/Nc2nc(-c3ccc(Cl)cc3)cs2)cc1 | BT-549 breast | Met |
| C/C(=N\NC(N)=O)c1c(O)sc(=O)[nH]c1=O | BT-549 breast | Met |
| NS(=O)(=O)c1cccc(Nc2nc(SCC(=O)c3ccc([N+](=O)[O-])cc3)nc3ccccc23)c1 | BT-549 breast | Not met |
| COc1cc(/C=C/C(=O)c2cc(OC)c(OC)c(OC)c2)ccc1Oc1nc(NCCO)nc(N2CCOCC2)n1 | BT-549 breast | Not met |

* * *

Test system: SF-295 CNS
protocol-summary: NCI-60 one-dose screen, 48 h (100 = growth as untreated, 0 = no growth, -100 = all killed)
conditions-used: 10 µM unless noted
About 83,000 compounds went through this panel and 20% of them were active in at least one assay; those are over-represented in the sample as a whole. The source made the active and inactive calls. How the source made its calls: active means growth percent below 10; inactive means the rest.
measure: growth

| compound | measure | result |
| --- | --- | --- |
| CCOC(=O)c1c(Nc2ccccc2)nn2c(-c3ccco3)c(C#N)cnc12 | growth | 76.7% (inactive) |
| CCOC(=O)c1c(Nc2ccccc2)nn2c(N)c(C#N)c(-c3ccccc3)nc12 | growth | 81.3% (inactive) |
| C#C[C@]1(O)CC[C@H]2[C@@H]3CC=C4c5sc(Nc6ccc(Cl)cn6)nc5CC[C@]4(C)[C@H]3CC[C@@]21C | growth | -63% (active) |
| O=C(N/N=C/c1ccc(Br)s1)c1[nH]c2ccc(Br)cc2c1-c1ccccc1 | growth | 14.8% (inactive) |
| CC(=NNc1ncnc2ccccc12)c1ccc(S(C)(=O)=O)cc1 | growth | 97.1% (inactive) |
| c1ccc(CNc2ncnc3ccc(-c4cnc5[nH]ncc5c4)cc23)cc1 | growth | 74.1% (inactive) |
| O=C1Nc2cc(Cl)ccc2/C1=C\c1ccc(OCc2ccc([N+](=O)[O-])cc2)cc1 | growth | 68.2% (inactive) |

* * *

Tested on: EKVX NSCLC
protocol-summary: NCI-60 one-dose screen, 48 h (100 = growth as untreated, 0 = no growth, -100 = all killed)
conditions-used: 10 µM unless noted
The panel holds about 83,000 compounds, 20% with a hit somewhere; the sample as a whole holds those more often.
Response field label: string, one of class 1 (growth strictly below 60%) or class 0.

| compound | assigned-category |
| --- | --- |
| COc1ccc(/C=C/C(=O)c2ccc(NC(=O)CSc3nnc(-c4ccc5nc(-c6ccc(Cl)cc6)[nH]c5c4)o3)cc2)cc1 | class 0 |
| Cc1nc(-c2cc3ccccc3oc2=O)ccc1C(=O)/C=C/c1ccc(N2CCOCC2)cc1 | class 0 |
| Cn1ccnc1C(=O)/C=C/c1ccc(NC(=O)Nc2ccc(Cl)cc2)cc1 | class 0 |
| CN(C)CCCNc1c2ccc(Cl)cc2nc2c1oc1ccccc12 | class 1 |

* * *

System: OVCAR-3 ovarian
protocol-summary: NCI-60 one-dose screen, 48 h (100 = growth as untreated, 0 = no growth, -100 = all killed)
conditions-used: 10 µM unless noted
The panel holds about 83,000 compounds, 20% with a hit somewhere; the sample as a whole holds those more often.
Class True: growth at least 70%. Class False: growth below 70%.

| compound | assigned-category |
| --- | --- |
| CN1CCN(Cc2ccc(NC(=O)c3cncc(C#Cc4cnc5[nH]ncc5c4)c3)cc2C(F)(F)F)CC1 | False |
| CS(=O)(=O)c1ccc(-c2nc3ccccn3c2/C=N/Nc2nc(-c3ccc(Br)cc3)cs2)cc1 | True |
| c1ccc2c(NCCCn3ccnc3)c3oc4ccccc4c3nc2c1 | False |
| O=C(N/N=C/c1ccc(Br)s1)c1[nH]c2ccc(Br)cc2c1-c1ccccc1 | False |

* * *

Tested on: HCT-116 colon
protocol-summary: NCI-60 one-dose screen, 48 h (100 = growth as untreated, 0 = no growth, -100 = all killed)
conditions-used: 10 µM unless noted
About 83,000 compounds went through this panel and 20% of them were active in at least one assay; those are over-represented in the sample as a whole.

| compound | reading-unit | growth |
| --- | --- | --- |
| COc1cccc(NC2=CC(=O)C(C)=C(C)C2=O)c1 | % | 10.5 |
| CCOc1ccc2nc(NC(=O)c3ccc(C(F)(F)F)cc3)sc2c1 | % | 102 |
| Cc1nc(-c2cc3ccccc3oc2=O)ccc1C(=O)/C=C/c1ccc(Cl)c(Cl)c1 | % | 103 |

* * *

Tested on: SN12C renal
protocol-summary: NCI-60 one-dose screen, 48 h (100 = growth as untreated, 0 = no growth, -100 = all killed)
conditions-used: 10 µM unless noted
About 83,000 compounds went through this panel and 20% of them were active in at least one assay; those are over-represented in the sample as a whole.
Items are presented alongside their recorded growth.
measure: growth (%)

| molecule | study-target | measure | reading-unit | result-number |
| --- | --- | --- | --- | --- |
| CCN1CCN(S(=O)(=O)c2oc(-c3ccc(Cl)cc3)nc2C#N)CC1 | SN12C renal | growth | % | 78.7 |
| COc1cc2nc(-c3ccc(Cl)cc3)cc(OCCCNCC3CCCO3)c2cc1OC (configuration not stated) | SN12C renal | growth | % | 47.3 |
| COc1cc(/C=C/C(=O)c2cc(OC)c(OC)c(OC)c2)ccc1OCc1ccccc1 | SN12C renal | growth | % | 69.7 |
| O=C(Nc1nc2ccc(O)cc2s1)c1cccc(C(F)(F)F)c1 | SN12C renal | growth | % | 68.9 |
| O=C(CCN1C(=O)/C(=C/c2ccccc2F)SC1=S)N1CCOCC1 | SN12C renal | growth | % | 73.9 |
| Nc1cc(-c2c[nH]c3ccc(Cl)cc23)nc2cc(-c3c[nH]c4ccc(Cl)cc34)nn12 | SN12C renal | growth | % | 70.8 |
| C#Cc1nc(C2=C(C)C(=O)/C(=N/OC(C)=O)C2)cs1 | SN12C renal | growth | % | 99 |
| O=C(N/N=C/c1ccc([N+](=O)[O-])s1)c1[nH]c2ccc(Br)cc2c1-c1ccccc1 | SN12C renal | growth | % | 17.5 |
| COc1ccc(-c2nc3ccc(-c4nnc(SCC(=O)Nc5ccc(C(=O)/C=C/c6ccc(Cl)cc6)cc5)o4)cc3[nH]2)cc1OC | SN12C renal | growth | % | 94.9 |
| Cc1cc(=O)oc2cc(OCCCOc3ccc(/C=C/C(=O)Nc4ccc(Cl)cc4)cc3)ccc12 | SN12C renal | growth | % | 84.4 |
| Cn1cc(-c2cc(N)n3nc(-c4cn(C)c5ccc(Cl)cc45)cc3n2)c2cc(Cl)ccc21 | SN12C renal | growth | % | 85 |
| Cc1cccc(/C=C/c2nn3c(-c4ccco4)nnc3s2)c1 | SN12C renal | growth | % | 94.8 |
| CN(C)CCCOc1c2ccc(Cl)cc2nc2c1oc1ccc(Cl)cc12 | SN12C renal | growth | % | 21.4 |
| COc1ccccc1/C=C/C=N/NC1=NC2C(S1)N(C)C(=O)N2C (configuration not stated) | SN12C renal | growth | % | 39.1 |
| O=c1[nH]c2ccccc2cc1CSc1ccccc1Nc1nccc(-c2ccc(C(F)(F)F)cc2)n1 | SN12C renal | growth | % | 70.3 |
| COc1cccc(OC)c1-c1nnn(C)c1C(=S)N1CCN(c2ccc([N+](=O)[O-])cc2Cl)CC1 | SN12C renal | growth | % | 93.6 |
| COc1ccc(-c2nc3ccc(-c4nnc(SCC(=O)Nc5ccc(C(C)=O)cc5)o4)cc3[nH]2)cc1 | SN12C renal | growth | % | 113 |
